- Test system: human maximum recommended daily dose, FDA database
- protocol_description: DSSTox (FDAMDD) FDA Maximum (Recommended) Daily Dose Database
- measurement_context: TherapeuticCategory: roborant; active compounds read low
assay_metric: maximum recommended daily dose (mmol/kg-bw/day)

molecule_smiles | value_reported
N[C@@H](CC(=O)O)C(=O)O | 0.751

----------
- System: human maximum recommended daily dose, FDA database
- protocol_description: DSSTox (FDAMDD) FDA Maximum (Recommended) Daily Dose Database
- measurement_context: TherapeuticCategory: antithelmintic; antimalarial; active compounds read low
assay_metric: maximum recommended daily dose (mmol/kg-bw/day)

compound | value_reported
CCN(CC)CCCC(C)Nc1c2ccc(Cl)cc2nc2ccc(OC)cc12 (stereo unspecified) | 0.0125

All values here come from PubChem BioAssay AID1195.
